tgt: Bcl-2 protein (Homo sapiens, UniProt P10415, DELINS35-91DVEENRTEAPEGTESE, form not given)
Construct: fused on or other part: Bcl-xL (Q07817) residues 29-44 stand in place of Bcl-2's own unstructured loop 35-91; The C-terminal membrane anchor (208-239) is absent
Sequence (P10415 with tags, fused parts or gaps with the stated changes): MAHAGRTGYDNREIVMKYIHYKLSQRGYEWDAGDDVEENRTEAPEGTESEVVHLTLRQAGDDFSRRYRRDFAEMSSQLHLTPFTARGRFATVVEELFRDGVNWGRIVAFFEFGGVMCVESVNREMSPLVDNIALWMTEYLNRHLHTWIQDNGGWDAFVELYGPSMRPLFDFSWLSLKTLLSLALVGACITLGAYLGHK
protocol-details: Bcl-2 fluorescence polarization assay (FPA) binding
test-context: 10 nM Bcl-2 protein, 1 nM fluorescein-labeled BAX peptide, room temperature, read-out: Bcl-2 FPA 11pt Ki
pKi: −log10 of the molar value.
Listed here: items and their measured pKi.

compound	bound-type	pKi
COc1cccc(OC)c1C(=O)c1sccc1-c1ccccc1C=C1CCN(c2ccc(C(=O)NS(=O)(=O)c3ccc(NCC4CCOCC4)c([N+](=O)[O-])c3)cc2)CC1	=	7.03
CC1(C)[C@H]2CC(CN3CCN(c4ccc(C(=O)NS(=O)(=O)c5ccc(NCC6CCCCC6)c([N+](=O)[O-])c5)cc4)CC3)=C(c3ccc(Cl)cc3)[C@@H]1C2	=	6.22
C[C@@H]1[C@@H](Nc2ccccc2CN2CCN(c3ccc(C(=O)NS(=O)(=O)c4ccc(NCC5CCOCC5)c([N+](=O)[O-])c4)cc3)CC2)C[C@@H]2C[C@H]1C2(C)C	=	7.04
O=C(NS(=O)(=O)c1ccc(NC2CCOCC2)c([N+](=O)[O-])c1)c1ccc(N2CC3CN(C(=O)C45CC6CC(CC(C6)C4)C5)CC32)cc1 (stereo not drawn)	<	5.20
O=C(NS(=O)(=O)c1ccc(NC2CCOCC2)c([N+](=O)[O-])c1)c1ccc(OCCC23CC4CC(CC(C4)C2)C3)cc1	=	5.98
O=C(NS(=O)(=O)c1ccc(NC2CCOCC2)c([N+](=O)[O-])c1)c1ccc(NCC2C3CC4CC(C3)CC2C4)cc1 (stereo not drawn)	=	5.45
